- Assay remarks: T. gondii ME49Luc in HeLa cells, luciferase assay, 72 h, no IFN-y (AID 1259421)
- Test settings: concentration not given here
About 610 (9.5%) of roughly 6,400 compounds were called active. Cut-off read from the data, not from the text of the source: active = activity change below about -70%; inconclusive = no clear call, values can overlap the other calls; inactive = above that. The entries come from a sample that favours actives as a whole.
Classes to choose from: active, inactive

// known answers, use as guide
Compound: CC(=O)O[C@]1(C(C)=O)CC[C@H]2[C@@H]3C=CC4=CC(=O)CC[C@]4(C)[C@H]3CC[C@@]21C
Cat: inactive

Compound: CC(C)(C)n1nc(-c2ccc(Cl)cc2)c2c(N)ncnc21
Cat: active

Compound: Cc1ccc([N+](=O)[O-])cc1S(=O)(=O)N(C)/N=C/c1cnc2ccc(Br)cn12
Cat: active

Compound: COc1cc(OC)c2c(=O)cc(-c3ccccc3)oc2c1
Cat: inactive

Compound: CCOc1cc2ncc(C#N)c(Nc3ccc(OCc4ccccn4)c(Cl)c3)c2cc1NC(=O)/C=C/CN(C)C
Cat: active

Compound: COc1cc(OC)c2c(=O)c(OC)c(-c3ccccc3)oc2c1
Cat: inactive

# input Outcome logged for c1ccc(CNc2ncnc3ccccc23)cc1 in this assay:
# output inactive

# input Outcome logged for O=S(=O)(c1ccccc1)c1cnc2c(N3CCNCC3)cccc2c1 in this assay:
# output inactive

# input Outcome logged for CCOc1cc2ncc(C#N)c(Nc3ccc(F)c(Cl)c3)c2cc1NC(=O)/C=C/CN(C)C in this assay:
# output active

# input Outcome logged for CC(=O)O[C@@H]1CC2C(C)(C)C(=O)C3OC3[C@]2(C)C2CC[C@@]3(C)[C@H](c4ccoc4)OC(=O)C4OC43[C@@]21C (some centres undefined) in this assay:
# output inactive

# input Outcome logged for OC[C@H]1O[C@@H](n2cnc3c(NC4CCCC4)ncnc32)[C@H](O)[C@@H]1O in this assay:
# output inactive
